Origin of measurements: patent US9701681B2

The entries below are paired with their reported IC50.
Target: TRK A, B & C kinase
Construct: fused on or other part: Carna's Trk kinases are usually GST-tagged cytoplasmic domains
Experiment: TRK A, B & C kinase assay (ADP-Glo / HTRF KinEASE-TK)
Assay type: biochemical
Settings: ADP-Glo or HTRF KinEASE-TK kit, isoform not specified, read-out: IC50 (nM) Enzymatic assay

{"columns": ["compound", "IC50"],
 "data": [
  ["CC(C)(C)c1nnc(-c2cnn3ccc(N4CCCC4c4cncc(F)c4)nc23)s1 (stereo not drawn) [Chemical Compound 15]", "< 10 nM"],
  ["O=C(/C=C/c1cnn2ccc(N3CCC[C@@H]3c3cc(F)ccc3F)nc12)N1CCCNCC1 [Chemical Compound 56]", "> 100 nM"],
  ["Fc1ccc(F)c(C2CCCN2c2ccn3ncc(-c4nnc(C5CC5)o4)c3n2)c1 (stereo not drawn) [Chemical Compound 7]", "< 10 nM"],
  ["Fc1ccc(F)c([C@H]2CCCN2c2ccn3ncc(-c4nnc(C5CCNCC5)o4)c3n2)c1 [Chemical Compound 24]", "< 10 nM"],
  ["O=C(/C=C/c1cnn2ccc(N3CCC[C@@H]3c3cc(F)ccc3F)nc12)N1CC[C@H](O)C1 [Chemical Compound 60]", "< 10 nM"],
  ["Fc1ccc(F)c(C2CCCN2c2ccn3ncc(-c4cnco4)c3n2)c1 (stereo not drawn) [Chemical Compound 29]", "< 10 nM"],
  ["CC1(O)CCN(C(=O)/C=C/c2cnn3ccc(N4CCC[C@@H]4c4cc(F)ccc4F)nc23)CC1 [Chemical Compound 58]", "< 10 nM"],
  ["O=C(Nc1nnc(-c2cnn3ccc(N4CCC[C@@H]4c4cc(F)ccc4F)nc23)s1)c1ccccc1 [Chemical Compound 21]", "> 100 nM"],
  ["Fc1ccc(F)c([C@H]2CCCN2c2ccn3ncc(-c4nnc(-c5cc[nH]n5)s4)c3n2)c1 [Chemical Compound 20]", "> 100 nM"],
  ["CC(C)c1nnc(-c2cnn3ccc(N4CCCC4c4cc(F)ccc4F)nc23)o1 (stereo not drawn) [Chemical Compound 5]", "< 10 nM"],
  ["CN(C)C(=O)/C=C/c1cnn2ccc(N3CCCC3c3cncc(F)c3)nc12 (stereo not drawn) [Chemical Compound 40]", "< 10 nM"],
  ["O=C(Cn1cc(-c2cnn3ccc(N4CCC[C@@H]4c4cc(F)ccc4F)nc23)nn1)N1CCNCC1 [Chemical Compound 37]", "< 10 nM"],
  ["Fc1ccc(F)c([C@H]2CCCN2c2ccn3ncc(-c4nnc(N5CCNCC5)s4)c3n2)c1 [Chemical Compound 22]", "< 10 nM"],
  ["CC(C)c1nnc(-c2cnn3ccc(N4CCCC4c4cncc(F)c4)nc23)s1 (stereo not drawn) [Chemical Compound 13]", "< 10 nM"],
  ["Cc1nnc(-c2cnn3ccc(N4CCCC4c4cc(F)ccc4F)nc23)s1 (stereo not drawn) [Chemical Compound 2]", "< 10 nM"]
]}

* * *

molecules and their reported IC50
Target: TRK A, B & C kinase
Construct: fused on or other part: Carna's Trk kinases are usually GST-tagged cytoplasmic domains
Assay: TRK A, B & C kinase assay (ADP-Glo / HTRF KinEASE-TK)
Assay type: biochemical
Conditions: ADP-Glo or HTRF KinEASE-TK kit, isoform not specified, read-out: IC50 (nM) Enzymatic assay
readout_label: IC50

{"columns": ["molecule", "readout_label", "result"],
 "data": [
  ["Fc1ccc(F)c([C@H]2CCCN2c2ccn3ncc(-c4nnc(N5CCNCC5)o4)c3n2)c1", "IC50", "> 100 nM"],
  ["Fc1ccc(F)c([C@H]2CCCN2c2ccn3ncc(-c4cn(C5CCCNC5)nn4)c3n2)c1 (stereo partly shown)", "IC50", "< 10 nM"],
  ["CC(C)(C)c1nnc(-c2cnn3ccc(N4C[C@@H](F)C[C@H]4c4cc(F)ccc4F)nc23)o1", "IC50", "> 100 nM"],
  ["O=C(/C=C/c1cnn2ccc(N3CCC[C@@H]3c3cc(F)ccc3F)nc12)N1CCOCC1", "IC50", "< 10 nM"],
  ["CC(C)NC(=O)/C=C/c1cnn2ccc(N3CCCC3c3cc(F)ccc3F)nc12 (stereo not shown)", "IC50", "< 10 nM"],
  ["Fc1ccc(F)c(C2CCCN2c2ccn3ncc(-c4nnc(C5CC5)s4)c3n2)c1 (stereo not shown)", "IC50", "< 10 nM"],
  ["CC(C)c1nnc(-c2cnn3ccc(N4CCC[C@@H]4c4cncc(F)c4)nc23)s1", "IC50", "< 10 nM"]
]}
